Tested on: Staphylococcus aureus
Assay: Antibacterial activity against methicillin-resistant Staphylococcus aureus clinical isolates from cystic fibrosis patients assessed as growth inhibition by CLSI broth microdilution method
Just a reminder that ties go to 0.0: only MIC50 strictly below 30 µg/mL counts as 1.0.

Is the reported MIC50 for CC(=O)SC1CC(=O)N1 (stereo not given) strictly below 30 µg/mL? 0.0

Item: "CO/N=C(\C(=O)N[C@@H]1C(=O)N2C(C(=O)O)=C(CSc3nc(=O)c(O)nn3C)CS[C@H]12)c1csc(N)n1" 1.0

Item: "COc1cc(C(=O)O[C@H](C)[C@H]2C(=O)N(SC)[C@@H]2OC(C)=O)cc(OC)c1O" 0.0

Item: "CSN1C(=O)C[C@@H]1OC(C)=O" 0.0

Item: CSN1C(=O)CC1SC(C)=O (stereo not given) 1.0

Item: "CSN1C(=O)[C@H]([C@@H](C)O)[C@H]1OC(C)=O" 0.0

Item: "CO/N=C(\C(=O)N[C@@H]1C(=O)N2C(C(=O)O)=C(COC(C)=O)CS[C@H]12)c1csc(N)n1" 0.0

* * *

System: Staphylococcus aureus
Experiment: Antibacterial activity against methicillin-resistant Staphylococcus aureus clinical isolates from cystic fibrosis patients assessed as growth inhibition by CLSI broth microdilution method
measured_metric: MIC50
Units required after the number.

Example entries and their recorded answers appear below.
mol_smiles=CSN1C(=O)[C@H]([C@@H](C)O)[C@H]1SC(C)=O target="Staphylococcus aureus" measurement="64 µg/mL"
mol_smiles=CSN1C(=O)[C@H]([C@@H](C)OC(=O)c2ccc(O)c(O)c2)[C@H]1OC(C)=O target="Staphylococcus aureus" measurement="128 µg/mL"

# evaluate next
API: value(readout= MIC50, system= Staphylococcus aureus, query= "CSN1C(=O)[C@H]([C@@H](C)OC(=O)/C=C/c2ccc(O)c(O)c2)[C@H]1OC(C)=O" ) 64 µg/mL
